Test system: Osteoclast
experiment-notes: Induction of morphological changes in mouse Osteoclast cells incubated for 24 hrs by TRAP staining based fluorescence microscopy analysis
Format: functional
Numbered stars: 1 amine (or outer) side, 2 acyl side, 3 side chain; on linkers, the order of the positions; unused ones are H or OH. Square brackets hold non-standard residues; d marks the D form. Peptide text beside a SMILES is read from it. X1 = O=C([C@@H](C[C@H]1CO1)O[*:1])[*:2]; NMeI = CC[C@H](C)[C@H](NC)C(=O)O; NMeβAla = CN(CCC(=O)[*:2])[*:1]; NMeV = CN[C@H](C(=O)O)C(C)C; NMeA = CN[C@@H](C)C(=O)O; βAla = NCCC(=O)O
result-type: Activity (µM)

* CC[C@H](C)[C@H]1C(=O)N(C)[C@@H](C(C)C)C(=O)N(C)[C@@H](C)C(=O)NCCC(=O)O[C@H](C[C@H]2CO2)C(=O)N2CCC[C@H]2C(=O)N1C (cyclo([NMeA][βAla][X1]P[NMeI][NMeV])) | 12.5
* CC[C@H](C)[C@@H]1NC(=O)[C@@H]2CCCN2C(=O)[C@@H](C[C@H]2CO2)OC(=O)CCN(C)C(=O)[C@H](C)N(C)C(=O)[C@H](C(C)C)N(C)C1=O (cyclo(I[NMeV][NMeA][NMeβAla][X1]P)) | 50
* CC[C@H](C)[C@@H]1NC(=O)[C@@H]2CCCN2C(=O)[C@@H](C[C@H]2CO2)OC(=O)CCNC(=O)[C@H](C)N(C)C(=O)[C@H](C(C)C)NC1=O (cyclo(IV[NMeA][βAla][X1]P)) | 1.6
